# IC50 against Tyrosine-protein kinase JAK2 (Homo sapiens, UniProt O60674), merged from multiple literature sources

INSERT INTO measurements (molecule, measurement_target, measured_quantity, recorded_value) VALUES
  ('C[C@H](O)C(=O)N1CC[C@H](Oc2ccc(-c3ncnc(Nc4ccc(N5CCO[C@H](CO)C5)cc4)n3)cc2C#N)[C@H](F)C1', 'Tyrosine-protein kinase JAK2 (Homo sapiens, UniProt O60674)', 'IC50', '333 nM'),
  ('Cn1cc(-c2cn3nccc3c(-c3cnn(C4(C)CCCC4)c3)n2)cn1', 'Tyrosine-protein kinase JAK2 (Homo sapiens, UniProt O60674)', 'IC50', '1000 to 10000 nM'),
  ('N#Cc1cc(-c2ncnc(Nc3ccc(N4CCN(C5COC5)CC4)cc3)n2)ccc1O[C@H]1CCN(C(=O)[C@H]2CCCCN2)C[C@H]1F', 'Tyrosine-protein kinase JAK2 (Homo sapiens, UniProt O60674)', 'IC50', '≥ 1000 nM');

Fill: IC50 (Tyrosine-protein kinase JAK2 (Homo sapiens, UniProt O60674)) for this molecule CC1CCOCc2cc(ccc2OCC2CCOC2)Nc2nccc(n2)-c2ccc(cc2N)C(=O)NC1 (centres unmarked)
101 to 1000 nM

Fill: IC50 (Tyrosine-protein kinase JAK2 (Homo sapiens, UniProt O60674)) for this molecule `O=S(=O)(NC12CC(n3cnc4cnc5[nH]ccc5c43)(C1)C2)N1CC(F)C1`
45.5 nM

Fill: IC50 (Tyrosine-protein kinase JAK2 (Homo sapiens, UniProt O60674)) for this molecule `CCC(CC)n1cc(-c2nc(-c3cnn([C@@H](C)CO)c3)cn3nccc23)cn1`
10 to 100 nM

Fill: IC50 (Tyrosine-protein kinase JAK2 (Homo sapiens, UniProt O60674)) for this molecule Nc1cc2ccc1-c1ccnc(n1)Nc1ccc(OCC3CCCOC3)c(c1)COCCCCNC2=O (centres unmarked)
101 to 1000 nM

Fill: IC50 (Tyrosine-protein kinase JAK2 (Homo sapiens, UniProt O60674)) for this molecule Cn1cc(-c2cc3nccn3c(-c3cnn(C4(CC#N)CCN(CC(F)(F)F)C4)c3)n2)cn1 (centres unmarked)
10 to 100 nM

---

# IC50 against Tyrosine-protein kinase JAK2 (Homo sapiens), merged from multiple literature sources

Fill: IC50 (Tyrosine-protein kinase JAK2 (Homo sapiens)) for this molecule `CCc1nc2cnc3[nH]ccc3c2n1N1CCC(CC#N)CC1`
0.95 nM

Fill: IC50 (Tyrosine-protein kinase JAK2 (Homo sapiens)) for this molecule `CS(=O)(=O)N(CC#N)c1ccc(-c2ccnc(Nc3ccc(N4CCOCC4)c(F)c3)n2)cc1`
< 100 nM

Fill: IC50 (Tyrosine-protein kinase JAK2 (Homo sapiens)) for this molecule `CN1CCC(N2C(=O)c3cc4nc(-c5c(NC[C@@H](O)COc6cccc(Br)c6)ccnc5O)[nH]c4cc3C2=O)CC1`
500 to 5000 nM

---

# IC50 against Tyrosine-protein kinase JAK2 (Homo sapiens), merged from multiple literature sources

INSERT INTO assay_data (molecule, recorded_value) VALUES
  ('C[C@H](O)C(=O)N1CC[C@H](Oc2ccc(-c3ncnc(Nc4cn(C)nc4CO)n3)cc2C#N)[C@H](F)C1', '≥ 1000 nM'),
  ('N#CCC1(n2cc(-c3ncnc4[nH]ccc34)cn2)CN(C2CCN(C(=O)c3cc(Cl)cc(C(F)(F)F)n3)CC2)C1', '10 to 50 nM'),
  ('O=C1c2cc3nc(-c4c(NC[C@@H](O)c5cccc(Cl)c5)ccnc4O)[nH]c3cc2C(=O)N1CCN1CCOCC1', '500 to 5000 nM'),
  ('Nc1cc2ccc1-c1ccnc(n1)Nc1ccc(N3CCSCC3)c(c1)COCCCCNC2=O', '11 to 100 nM'),
  ('CCC(=O)c1cnc(Nc2ccc(CN)cn2)cc1Nc1cccc(-c2ncn(C)n2)c1OC', '≥ 500 nM');

// below: IC50 requested for another molecule
Fill: IC50 (Tyrosine-protein kinase JAK2 (Homo sapiens)) for this molecule CCS(=O)(=O)N1CCC(CC(CC#N)n2cc(-c3nc(Nc4ccc(-n5cccn5)cc4)ncc3C)cn2)CC1 (racemic)
< 100 nM

---

pIC50: −log10 of the molar value.
# pIC50 against UniProt:O60674, merged from multiple literature sources

INSERT INTO measurements (compound, recorded_value) VALUES
  ('CCC(Cn1ccc2cnc(Nc3cnn(CCC(=O)O)c3)nc21)C(C)C (stereo not shown)', '> 7.00'),
  ('CCC(CC)n1cc(-c2nc(-c3cnn(C4CN(C(=O)[C@H]5C[C@H](O)C5)C4)c3)cn3nccc23)cn1', '7.00 to 8.00'),
  ('CN(c1ncnc2[nH]ccc12)C1CC2(C1)CN(C(=O)C1(C#N)CC1)C2', '6.00 to 7.00'),
  ('CCNC(=O)N1CC(CCF)(n2cc(-c3nc(-c4cnn(C)c4)cc4nccn34)cn2)C1', '< 6.00');

Fill: pIC50 (UniProt:O60674) for this compound `CCN1CCN(Cc2ccc(NC(=O)N3Cc4ccc(Oc5ccc6nc(NC(=O)C7CC7)sc6n5)cc4C3)cc2C(F)(F)F)CC1`
< 5.00

Fill: pIC50 (UniProt:O60674) for this compound `CN1CCN(Cc2ccc(-n3cc(-c4nc(NC5CCN(S(C)(=O)=O)CC5)ncc4C#N)cn3)c(Cl)c2)CC1`
≤ 5.00

Fill: pIC50 (UniProt:O60674) for this compound `N#Cc1cc(-c2ncnc(Nc3ccc(N4CCOC[C@H]4CO)cc3)n2)ccc1O[C@H]1CCN(C(=O)CO)C[C@H]1F`
6.72

Fill: pIC50 (UniProt:O60674) for this compound `Cc1ncsc1CCN1C(=O)c2cc3nc(-c4c(NC[C@@H](O)c5cccc(Cl)c5)cc[nH]c4=O)[nH]c3cc2C1=O`
< 4.82

Fill: pIC50 (UniProt:O60674) for this compound `O=C(NCCC(F)(F)F)c1nn(C2CCNCC2)c2c1CN(c1ncnc3[nH]ccc13)CC2`
< 5.70

Fill: pIC50 (UniProt:O60674) for this compound `N#CCC1(n2cc(-c3ncnc4[nH]ccc34)cn2)CN(C2CCN(C(=O)c3ccc(-c4ccc5cccnc5c4)c(F)c3)CC2)C1`
7.30 to 8.00

Fill: pIC50 (UniProt:O60674) for this compound `Cn1cc(-c2cc3nccn3c(-c3cnn([C@H](CCF)C4CCC4)c3)n2)cn1`
7.00 to 8.00

Fill: pIC50 (UniProt:O60674) for this compound `N#CCC(=O)N1CCC[C@@H](Nc2c(-c3cccc(CO)n3)cnc3[nH]ccc23)C1`
≥ 8.00

Fill: pIC50 (UniProt:O60674) for this compound `CN1CCC(N2Cc3cc4nc(-c5c(NC[C@@H](O)COc6c(F)cccc6Cl)cc[nH]c5=O)[nH]c4cc3C2=O)CC1`
> 6.30

---

# IC50 against Tyrosine-protein kinase JAK2 (Homo sapiens), merged from multiple literature sources

INSERT INTO measurements (chemical_structure, measured_quantity, recorded_value) VALUES
  ('CCC(CC)n1cc(-c2nc(-c3cnn(C[C@H](O)CC)c3)cn3nccc23)cn1', 'IC50', '10 to 100 nM'),
  ('C[C@H]1C[C@@H](Nc2c(-c3nncs3)cnc3[nH]ccc23)CN(C(=O)CC#N)C1', 'IC50', '≤ 10 nM'),
  ('CC=C[C@@H](C1CC1)n1cc(-c2nc(-c3cnn(C)c3)cc3nccn23)cn1', 'IC50', '100 to 1000 nM');

// below: IC50 requested for another molecule
Fill: IC50 (Tyrosine-protein kinase JAK2 (Homo sapiens)) for this molecule `Cc1nn(C2(CC#N)CN(CC(F)(F)F)C2)cc1-c1nc(-c2cnn(C)c2)cc2nccn12`
100 to 1000 nM

---

# IC50 against Tyrosine-protein kinase JAK2 (Homo sapiens, UniProt O60674), merged from multiple literature sources

Worked examples follow.
INSERT INTO results (molecule, recorded_value) VALUES
  ('O=C(NCCC(F)(F)F)c1onc2c1CN(c1ncnc3[nH]ccc13)CC21CC1', '100 to 500 nM'),
  ('CCC[C@H](C)n1cc(-c2nc(-c3cnn(C(CO)CO)c3)cn3nccc23)cn1', '10 to 100 nM'),
  ('CN1C(=O)CC[C@H]1C(=O)N1CC[C@H](Oc2ccc(-c3ncnc(Nc4ccc(N5CCN(C6COC6)CC5)c(F)c4)n3)cc2C#N)[C@H](F)C1', '≥ 1000 nM'),
  ('CCOCCO[C@H]1CNc2cc(Nc3ncc(C(N)=O)c(NC4CC4)n3)ccc2OC1', '10 to 100 nM'),
  ('N#Cc1cc(-c2ncnc(Nc3ccc(N4CCN(C5COC5)CC4)cc3)n2)ccc1O[C@@H]1CCNCC1(F)F (single isomer, unassigned)', '270 nM'),
  ('CCS(=O)(=O)N1CC(CC#N)(n2cc(-c3nc(Nc4ccc5[nH]ncc5c4)nc4ccsc34)cn2)C1', '< 50 nM');

Using the record for `CCCS(=O)(=O)N[C@H]1C[C@H](n2cnc3cnc4[nH]ccc4c32)C1` , state its measured IC50.
1540 nM

Using the record for C[C@H](O)C(=O)N1CCC(Oc2ccc(-c3ncnc(Nc4ccc(N5CCO[C@@H](CO)C5)cc4)n3)cc2C#N)C(F)(F)C1 (some centres unmarked) , state its measured IC50.
206 nM
